The following binders are listed with their measured log10 of Kd values.
# Target Entity: T1, neurotensin receptors (frozen tissue sections from receptor-positive human tumors) (human, UniProt P30989 1-418)
# T1 construct: whole, on cells
# T1 sequence (P30989 whole entry): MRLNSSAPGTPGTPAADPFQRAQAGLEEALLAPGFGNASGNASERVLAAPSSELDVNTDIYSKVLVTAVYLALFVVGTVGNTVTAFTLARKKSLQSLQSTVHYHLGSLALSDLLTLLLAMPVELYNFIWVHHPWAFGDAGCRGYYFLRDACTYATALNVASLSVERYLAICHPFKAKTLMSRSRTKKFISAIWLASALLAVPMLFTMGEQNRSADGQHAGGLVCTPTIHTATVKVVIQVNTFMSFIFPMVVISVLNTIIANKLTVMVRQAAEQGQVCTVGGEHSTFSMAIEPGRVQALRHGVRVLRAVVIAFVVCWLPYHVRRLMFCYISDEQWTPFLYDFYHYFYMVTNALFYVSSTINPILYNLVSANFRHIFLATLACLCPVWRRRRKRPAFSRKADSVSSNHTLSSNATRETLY
# Assay Comment: competitive binding vs radioiodinated native neurotensin, human tumor sections
[ ]: non-standard residue; d: D form. The star is where a group is joined. Gly(1-amidinopiperidin-4-yl) = N=C(N)N1CCC([C@H](N)C(=O)O)CC1; DTPA = O=C(O)CN(CCN(CC(=O)O)CC(=O)O)CCN(CC(=O)O)CC(=O)*; Phe(4-guanidino) = N=C(N)Nc1ccc(C[C@H](N)C(=O)O)cc1; Ala(PipAm) = (N-amidinopiperidinyl)alanine; Cha = N[C@@H](CC1CCCCC1)C(=O)O; Tle = CC(C)(C)[C@H](N)C(=O)O; Aba(Apy) = not defined here; NHOH = ON*
Recorded Endpoint: log10 of Kd (log10 of the value in nM)

INSERT INTO measurements (binder, recorded_endpoint, recorded_result) VALUES
  ('{DTPA}-[dK]PR[Aba(Apy)]PYIL-OH (reading uncertain) [DTPA-DLys-Pro-Arg-Aba(Apy)-Pro-Tyr-Ile-Leu-OH]', 'log10 of Kd', 3.08),
  ('KPRXPYIL (N-terminal DTPA; D-Lys at 1; (4-Gu)Phe [Phe(4-guanyl)] at 4 (X), also called DTPA-DLys-Pro-Arg-Phe(4-guanyl)-Pro-Tyr-Ile-Leu-OH) [DTPA-DLys-Pro-Arg-(4-Gu)Phe-Pro-Tyr-Ile-Leu-OH]', 'log10 of Kd', 1.92),
  ('{DTPA}-[dY]ENKP[Gly(1-amidinopiperidin-4-yl)]RPY[Tle][Cha]-OH (SMILES CC(C)(C)[C@H](NC(=O)[C@H](Cc1ccc(O)cc1)NC(=O)[C@@H]1CCCN1C(=O)[C@H](CCCNC(=N)N)NC(=O)[C@@H](NC(=O)[C@@H]1CCCN1C(=O)[C@H](CCCCN)NC(=O)[C@H](CC(N)=O)NC(=O)[C@H](CCC(=O)O)NC(=O)[C@@H](Cc1ccc(O)cc1)NC(=O)CN(CCN(CCN(CC(=O)O)CC(=O)O)CC(=O)O)CC(=O)O)C1CCN(C(=N)N)CC1)C(=O)N[C@@H](CC1CCCCC1)C(=O)O, also called Compound XIV) [DTPA-DTyr-Glu-Asn-Lys-Pro-Gly(PipAm)-Arg-Pro-Tyr-tBuGly-Cha-OH]', 'log10 of Kd', 0.65),
  ('{DTPA}-[dK]P[Phe(4-guanidino)][Phe(4-guanidino)]PYIL-OH (SMILES CC[C@H](C)[C@H](NC(=O)[C@H](Cc1ccc(O)cc1)NC(=O)[C@@H]1CCCN1C(=O)[C@H](Cc1ccc(NC(=N)N)cc1)NC(=O)[C@H](Cc1ccc(NC(=N)N)cc1)NC(=O)[C@@H]1CCCN1C(=O)[C@@H](CCCCN)NC(=O)CN(CCN(CCN(CC(=O)O)CC(=O)O)CC(=O)O)CC(=O)O)C(=O)N[C@@H](CC(C)C)C(=O)O, also called DTPA-DLys-Pro-Phe(4-guanyl)-Phe(4-guanyl)-Pro-Tyr-Ile-Leu-OH) [DTPA-DLys-Pro-(4-Gu)Phe-(4-Gu)Phe-Pro-Tyr-Ile-Leu-OH]', 'log10 of Kd', 2.24),
  ('{DTPA}-[dK]P[Ala(PipAm)]RPY[Tle]L-OH [DTPA-DLys-Pro-Ala(PipAm)-Arg-Pro-Tyr-tBuGly-Leu-OH]', 'log10 of Kd', 1.15),
  ('{DTPA}-[dY]ENKP[Gly(1-amidinopiperidin-4-yl)]RPY[Tle]L-OH (SMILES CC(C)C[C@H](NC(=O)[C@@H](NC(=O)[C@H](Cc1ccc(O)cc1)NC(=O)[C@@H]1CCCN1C(=O)[C@H](CCCNC(=N)N)NC(=O)[C@@H](NC(=O)[C@@H]1CCCN1C(=O)[C@H](CCCCN)NC(=O)[C@H](CC(N)=O)NC(=O)[C@H](CCC(=O)O)NC(=O)[C@@H](Cc1ccc(O)cc1)NC(=O)CN(CCN(CCN(CC(=O)O)CC(=O)O)CC(=O)O)CC(=O)O)C1CCN(C(=N)N)CC1)C(C)(C)C)C(=O)O, also called Compound XIII) [DTPA-DTyr-Glu-Asn-Lys-Pro-Gly(PipAm)-Arg-Pro-Tyr-tBuGly-Leu-OH]', 'log10 of Kd', 0.65),
  ('{DTPA}-[dK]P[Gly(1-amidinopiperidin-4-yl)]RPY[Tle]L-{NHOH} [DTPA-DLys-Pro-Gly(PipAm)-Arg-Pro-Tyr-tBuGly-Leu-HA]', 'log10 of Kd', 1.69);

The measured values listed here are drawn from patent US20050191240A1.
